Cited source for all entries: patent US20230340128A1

Biological target: cyno MSLN (Macaca fascicularis)
Experiment: BLI (Octet), bsAb in 1+1 Fab-scFv-Fc format
Quantity Measured: koff (s⁻¹)
Answers are plain numbers, in s⁻¹.

Study these solved cases before continuing.
Binder: XENP32565 (bispecific antibody, part only; not given: anti-CD3 scFv-Fc arm, constant regions, V domains shown, not shown: another chain or arm of the molecule; a dimerising Fc or GST; small tags and cut ends) VH: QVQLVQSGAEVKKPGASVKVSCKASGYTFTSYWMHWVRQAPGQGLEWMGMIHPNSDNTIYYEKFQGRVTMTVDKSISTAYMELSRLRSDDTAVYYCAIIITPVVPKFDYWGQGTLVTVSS VL: DIVMTQSPDSLAVSLGERATINCKASHDVGTSVAWYQQKPGQSPKLLIYWASTRETGVPDRFTGSGSGTDFTLTISSLQAEDVAVYFCQQYSSYPLTFGAGTKLEIK
Unit Label: s⁻¹
Observed: 0.000151
--
Binder: XENP32555 (bispecific antibody, part only; not given: anti-CD3 scFv-Fc arm, constant regions, V domains shown, not shown: another chain or arm of the molecule; a dimerising Fc or GST; small tags and cut ends) VH: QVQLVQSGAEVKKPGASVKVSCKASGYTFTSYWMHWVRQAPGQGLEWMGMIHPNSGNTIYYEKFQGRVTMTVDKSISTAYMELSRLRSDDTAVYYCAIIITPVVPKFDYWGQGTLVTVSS VL: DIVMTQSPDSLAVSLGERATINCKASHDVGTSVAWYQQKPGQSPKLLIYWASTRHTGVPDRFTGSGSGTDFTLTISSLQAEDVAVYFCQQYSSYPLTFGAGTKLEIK
Unit Label: s⁻¹
Observed: 0.000342
--
Binder: XENP32569 (bispecific antibody, part only; not given: anti-CD3 scFv-Fc arm, constant regions, V domains shown, not shown: another chain or arm of the molecule; a dimerising Fc or GST; small tags and cut ends) VH: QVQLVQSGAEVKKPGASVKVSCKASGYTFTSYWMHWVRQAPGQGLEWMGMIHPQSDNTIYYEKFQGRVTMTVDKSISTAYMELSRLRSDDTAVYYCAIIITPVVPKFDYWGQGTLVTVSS VL: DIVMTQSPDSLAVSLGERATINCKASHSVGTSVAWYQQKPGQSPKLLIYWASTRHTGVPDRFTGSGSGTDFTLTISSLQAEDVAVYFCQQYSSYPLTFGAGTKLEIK
Unit Label: s⁻¹
Observed: 0.000125
--
Binder: XENP31701 (bispecific antibody, part only; not given: anti-CD3 scFv-Fc arm, constant regions, V domains shown, not shown: another chain or arm of the molecule; a dimerising Fc or GST; small tags and cut ends) VH: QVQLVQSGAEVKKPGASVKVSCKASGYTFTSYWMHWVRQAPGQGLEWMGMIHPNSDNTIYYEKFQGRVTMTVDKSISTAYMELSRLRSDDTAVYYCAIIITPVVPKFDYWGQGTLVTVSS VL: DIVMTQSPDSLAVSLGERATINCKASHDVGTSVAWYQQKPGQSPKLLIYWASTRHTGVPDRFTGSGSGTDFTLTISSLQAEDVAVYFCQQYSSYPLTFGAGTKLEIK
Unit Label: s⁻¹
Observed: 5.74e-05

Q: What koff value was documented for this binder, XENP32566 (bispecific antibody, part only; not given: anti-CD3 scFv-Fc arm, constant regions, V domains shown, not shown: another chain or arm of the molecule; a dimerising Fc or GST; small tags and cut ends) VH: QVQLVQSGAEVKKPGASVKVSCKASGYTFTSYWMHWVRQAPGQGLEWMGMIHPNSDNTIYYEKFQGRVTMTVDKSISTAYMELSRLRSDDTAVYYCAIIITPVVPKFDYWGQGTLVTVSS VL: DIVMTQSPDSLAVSLGERATINCKASHDVGTSVAWYQQKPGQSPKLLIYWASTRHSGVPDRFTGSGSGTDFTLTISSLQAEDVAVYFCQQYSSYPLTFGAGTKLEIK ?
Result: 0.0001
